- Tested on: A498 renal
- assay.details: NCI tumour cell line growth inhibition, 48 h
TGI values, listed per item
Give a bare numeral; the unit µM is implied.

Entry O=C(NCc1cccnc1)/C(=C\c1ccc(Br)cc1)S(=O)(=O)c1ccccc1 : TGI on A498 renal = 2.71

Bench note, A498 renal: O=C(/C=C/c1ccc(C(F)(F)F)cc1)c1ccc(Nc2nc(NCCO)nc(NCCO)n2)cc1 , TGI reads 21.2

// TGI (A498 renal) for CCCCC[C@@H]1OCO[C@@]2(C)/C=C(C)/C=C/C(=O)O[C@H]([C@@H](C)[C@@H](O)[C@H](C)[C@@]3(O)C[C@@H](O[C@H]4C[C@@H](O)[C@H](O)[C@@H](C)O4)[C@H](C)[C@@H](C)O3)[C@@H](OC)/C=C/C=C(\C)C[C@@H]1[C@@H]2O (stereo in doubt) = 0.0829
